Measured values drawn from PubChem BioAssay for this set.

For each entry below, report its z-score value.
Biological target: Homeobox protein Hox-A13 (Mus musculus)
Experiment: inhibitors of HoxA13-DNA binding, primary screen, biochemical, fluorescence polarization, labeled oligonucleotide (AID 1185)
Conditions: 15 min, higher = more signal, called active from +8 up or from −8 down
One number for each entry.

Some solved cases for reference:
COC(=O)[C@@]1(Cc2ccc(F)cc2)[C@H]2c3cc(C(=O)N(C)C)n(Cc4ccc(OC)c(OC)c4)c3C[C@H]2CN1C(=O)c1ccccc1 = -3.65
O=C1NC(=O)C2C1C=CC(C(O)Cc1ccccc1)N2Nc1ccccn1 (stereo not given) = -3.75
CN(C)CCCNC(=O)[C@@H]1c2ccccc2C(=O)N(Cc2ccccc2)[C@H]1c1ccc(CO)cc1 = 0.86
CN1C(=O)C2C=CC(C(O)c3ccc(Br)cc3)N(N(c3ccccc3)c3ccccc3)C2C1=O (stereo not given) = -0.704
COCCCNC(=O)[C@@]1(Sc2ccc(C)cc2)CC(=O)N(Cc2ccccc2)[C@@H]1c1ccc(CO)cc1I = -2.08
COCCOC(=O)N1C(=O)[C@@]2(c3cc(C#Cc4ccc(OC)cc4)ccc31)[C@H](C(=O)N1CCN(c3ncccn3)CC1)[C@H]1C(=O)O[C@H](c3ccccc3)[C@H](c3ccccc3)N1[C@@H]2c1ccc(OCCO)cc1 = 1.38
Cc1ccc(S[C@]2(C(=O)O)CC(=O)N(Cc3ccccc3)[C@@H]2c2ccc(CO)cc2I)cc1 = -2.92
Cc1cc(C)c(-c2cc([C@H](C)ON=C3[C@H]4CCn5c(=O)n(-c6ccccc6)c(=O)n5[C@H]4[C@H](O)[C@@H]4O[C@H]34)on2)c(C)c1 = -4.69
CO[C@H]1COC(=O)[C@H](C)NC(=O)[C@@H](C)COC(=O)CC=C[C@@H]1C = -0.467
C=COC[C@H]1CN2[C@@H](CC[C@@H](C)[C@@H]2c2ccc(Br)cc2)C(=O)O1 = -2.37

Take each entry in turn and give its z-score.
1. NC(=O)NCC#Cc1ccc2c(c1)[C@]1(C(=O)N2)[C@H](c2ccc(O)cc2)N2[C@H](c3ccccc3)[C@H](c3ccccc3)OC(=O)[C@H]2[C@@H]1C(=O)N1CCCCCCC1
2. CCc1cc2c(nc1CC)CCN(CCC(C)=NOC(C)CN1CCCc3nc(C)c(C)cc31)C2 (stereo not given)

Response:
1. 1.52
2. -9.89

Kindly give each listed record's z-score.
1. CCOC(=O)NN=C1C[C@@H](O)[C@@H](O)[C@@H]2[C@@H]3C(=O)N(C[C@@H]4CCCO4)C(=O)[C@@H]3CC[C@@H]12
2. C#CCCCON=C1C[C@@H](O)[C@@H](O)[C@@H]2[C@@H]3C(=O)N(Cc4ccccc4)C(=O)[C@@H]3CC[C@H]12
3. O=C1C[C@@H](O)[C@@H](O)[C@@H]2[C@@H]3C(=O)N(C4CCCCC4)C(=O)[C@@H]3CC[C@H]12

Response:
1: 0.513; 2: -3.05; 3: 0.34
